- Tested System: T1, mature recombinant human GDF-15 H202D variant with an N-terminal Flag and His tag, biotinylated (human, UniProt Q99988 197-308, chemically biotinylated with EZ link Sulfo-NHS-LC-Biotin, sites not stated)
- T1 construct: also called Human H202D; not shown: N-terminal Flag and His tags
- T1 chain: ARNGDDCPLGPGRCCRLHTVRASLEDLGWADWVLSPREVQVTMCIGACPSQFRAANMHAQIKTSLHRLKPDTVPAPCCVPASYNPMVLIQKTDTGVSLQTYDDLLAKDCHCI
- Measurement Protocol: SPR Biacore 8K, 25 C, biotinylated GDF-15 on streptavidin C1 chip, Fab as analyte
Reported Endpoint: kon (M⁻¹ s⁻¹)
Please respond with the number in M⁻¹ s⁻¹ and leave the unit unwritten.

Query: Hello, please tell me recorded kon for this one: AB1170247 Fab (Fab, V domains shown, Fab of the humanized antibody, expressed as in Spooner et al. 2015) VH: QVQLVQSGSELKKPGASVKVSCKASGYTFTSYDINWVRQAPGQGLEWIGWIYPRDGISKYNEKFKGRATLTVDTSASTAYMELSSLRSEDTAVYYCAGTYDPAYFDYWGQGTTVTVSS VL: EIVLTQSPATLSVSPGERATLSCRASQSISYYLHWYQQKPGQAPRLLIKYASQSISGVPDRFSGSGSGTDFTLKISRVEAEDFGVYYCQQSNSWPYTFGGGTKVEIK
Response: 4.06e+06

Query: Hello, please tell me recorded kon for this one: AB1170241 Fab (Fab, V domains shown, Fab of the humanized antibody, expressed as in Spooner et al. 2015) VH: QVQLVQSGSELKKPGASVKVSCKASGYTFTDYNMDWIRQSPGKGLEWIGDINPNQGGTFYNQKFKDRATLTVDKSTSTAYMELRSLRSDDTAVYYCAREEKLYFGLMDYWGQGTTVTVSS VL: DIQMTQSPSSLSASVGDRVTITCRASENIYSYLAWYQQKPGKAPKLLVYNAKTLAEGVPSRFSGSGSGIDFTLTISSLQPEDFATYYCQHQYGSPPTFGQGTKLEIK
Response: 4.45e+06

Query: Hello, please tell me recorded kon for this one: AB1170249 Fab (Fab, V domains shown, Fab of the humanized antibody, expressed as in Spooner et al. 2015) VH: QVQLQESGPGLLKPSQTLSLTCTVSGFSLSTYGMGVGWIRQPLGKGLEWLANIWWNDDKYYNSALKSRLTISKDTSKNQVSLKLSSVTAADTAVYYCAQMAYSWFAYWGQGTLVTVSS VL: DIQMTQSPSFLSASVGDRVTITCKASQNMDTNVAWYQQKPGQPPKALIYSASYRYSGVPDRFSGSGSGTDFTLTISSLQAEDVAVYYCQQYNSYPFTFGQGTKLEIK
Response: 3.72e+06

Query: Hello, please tell me recorded kon for this one: AB1170244 Fab (Fab, V domains shown, Fab of the humanized antibody, expressed as in Spooner et al. 2015) VH: EVQLVESGGGLVKPGGSLRLSCAASGFTFSSYAMSWVRQAPGKGLEWVAYISSGGDNIYYADTVKGRFTISRDNSKNTLYLQMNSLKTEDTAVYYCTRALVENAYFDYWGQGTTVTVSS VL: DSVLTQSPDSLAVSLGERATINCRASKSVSTSTYSYMHWYQQKPGQPPKLLIKYASYLESGVPDRFSGSGSGTDFTLKISRVEAEDVGVYYCQHSREFPWTFGGGTKVEIK
Response: 2.49e+06

Query: Hello, please tell me recorded kon for this one: AB1170242 Fab (Fab, V domains shown, Fab of the humanized antibody, expressed as in Spooner et al. 2015) VH: QVQLQESGPGLLKPSQTLSLTCTVSGFSLSTYGMGVGWIRQPAGKGLEWLANIWWNDDKYYNSALKSRLTISKDTSKNQVSLKLSSVTAADTAVYYCAQEVYGWFAYWGQGTLVTVSS VL: DIQMTQSPSTLSASVGDRVTITCKASQNVGTNVAWYQQKPGQPPKALIYSASYRYSGVPDRFSGSGSGTDFTLTISSLQAEDVAVYYCQQYNSYPLTFGQGTKLEIK
Response: 7.47e+06
